- protocol details: in vivo
- Type: in vivo
- condition description: nude, mouse, in vivo, CCI-779 (prototype) concentration, Blood Plasma, Mean Value
measured metric: concentration at 5 h (ng/mL)

compound	measured metric	measurement units	recorded result
CO[C@H]1C[C@@H]2CC[C@@H](C)[C@@](O)(O2)C(=O)C(=O)N2CCCC[C@H]2C(=O)O[C@H]([C@H](C)C[C@@H]2CC[C@@H](OC(=O)C(C)(CO)CO)[C@H](OC)C2)CC(=O)[C@H](C)/C=C(\C)[C@@H](O)[C@@H](OC)C(=O)[C@H](C)C[C@H](C)/C=C/C=C/C=C/1C [CCI-779]	concentration at 5 h	ng/mL	3.67
